# SYSTEM UNDER TEST: hGIPR (Homo sapiens)
# Sequence (P48546 22-466): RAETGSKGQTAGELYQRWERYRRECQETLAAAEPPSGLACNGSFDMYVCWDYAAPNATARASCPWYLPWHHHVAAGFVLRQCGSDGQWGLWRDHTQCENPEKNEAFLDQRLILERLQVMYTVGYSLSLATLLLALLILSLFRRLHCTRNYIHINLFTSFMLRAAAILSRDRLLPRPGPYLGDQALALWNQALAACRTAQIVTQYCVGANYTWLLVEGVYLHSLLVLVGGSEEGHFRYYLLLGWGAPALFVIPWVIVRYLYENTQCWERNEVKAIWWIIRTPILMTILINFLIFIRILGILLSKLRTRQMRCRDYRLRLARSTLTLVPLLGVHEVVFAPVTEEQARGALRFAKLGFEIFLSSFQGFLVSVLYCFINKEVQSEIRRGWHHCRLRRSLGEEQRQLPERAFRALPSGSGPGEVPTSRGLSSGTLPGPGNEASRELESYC
# PROCEDURE DETAILS: Functional cAMP activity in the presence of 1% HSA
# Assay type: cell-based
# ASSAY CONDITIONS: read-out: cAMP Rel EC50, hGIPR
pEC50: −log10 of the molar value. Starred links: 1 amine or outer side, 2 acyl side, 3 side chain; linkers in the order of their positions; H or OH if unused. Non-standard residues stand in square brackets, D forms with d. Groups on a side chain read outwards from the residue. *: point of attachment. C18 diacid = O=C(O)CCCCCCCCCCCCCCCCC(=O)*; αMePhe(2-F) = C[C@](N)(Cc1ccccc1F)C(=O)O; γGlu = O=C(O)[C@H](CCC(=O)[*:2])N[*:1]; αMe4Pal = C[C@](N)(Cc1ccncc1)C(=O)O; αMeY = C[C@](N)(Cc1ccc(O)cc1)C(=O)O; 4Pal = N[C@@H](Cc1ccncc1)C(=O)O; αMeL = CC(C)C[C@](C)(N)C(=O)O; αMeS = C[C@](N)(CO)C(=O)O; Orn = NCCC[C@H](N)C(=O)O; Aib = CC(C)(N)C(=O)O
ASSAY READOUT: pEC50

INSERT INTO assay_data (substance, reported_result) VALUES
  ('H-Y[Aib]QGTFTSD[4Pal]SQ[αMeL]LDKK([γGlu-γGlu-C18 diacid])AQ[αMe4Pal]AFIEYLIE[Aib]GPSSGAPPPSGSEEE-NH2 [Example 900]', 7.77),
  ('H-Y[Aib]QGT[αMePhe(2-F)]TSD[4Pal][αMeS]I[αMeL]LD[Orn]K([γGlu-Glu-C18 diacid])AQ[Aib][Orn]FI[dE][αMeY]LSEGGPSSGEPPPSGTE-NH2 [Example 565]', 7.66),
  ('H-Y[Aib]QGTFTSD[4Pal]SQ[αMeL]LD[Orn]K([dE-γGlu-C18 diacid])AQ[αMe4Pal]QFIQ[αMeY]LIE[Aib]GPSSGEPPPSGGGE-NH2 [Example 1129]', 8.38);

---

# SYSTEM UNDER TEST: human GcgR (Homo sapiens, UniProt P47871)
# Sequence (P47871 26-477): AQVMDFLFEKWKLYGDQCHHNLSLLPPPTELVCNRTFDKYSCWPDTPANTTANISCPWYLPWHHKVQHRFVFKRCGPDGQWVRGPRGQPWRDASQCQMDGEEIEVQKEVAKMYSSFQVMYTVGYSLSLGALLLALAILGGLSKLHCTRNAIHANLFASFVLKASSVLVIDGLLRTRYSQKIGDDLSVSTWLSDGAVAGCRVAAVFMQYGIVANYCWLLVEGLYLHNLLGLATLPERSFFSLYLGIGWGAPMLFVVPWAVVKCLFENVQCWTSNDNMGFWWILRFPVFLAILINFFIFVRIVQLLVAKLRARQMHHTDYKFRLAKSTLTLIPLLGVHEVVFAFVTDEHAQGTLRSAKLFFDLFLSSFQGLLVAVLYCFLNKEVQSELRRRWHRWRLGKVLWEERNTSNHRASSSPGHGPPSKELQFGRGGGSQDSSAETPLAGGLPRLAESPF
# PROCEDURE DETAILS: Functional cAMP activity in the presence of 1% HSA
# Assay type: cell-based
# ASSAY CONDITIONS: read-out: cAMP Rel EC50, hGcgR
Starred links: 1 amine or outer side, 2 acyl side, 3 side chain; linkers in the order of their positions; H or OH if unused. Non-standard residues stand in square brackets, D forms with d. Groups on a side chain read outwards from the residue. No end group written: not given here. *: point of attachment. C20 diacid = O=C(O)CCCCCCCCCCCCCCCCCCC(=O)*; C18 diacid = O=C(O)CCCCCCCCCCCCCCCCC(=O)*; αMePhe(2-F) = C[C@](N)(Cc1ccccc1F)C(=O)O; γGlu = O=C(O)[C@H](CCC(=O)[*:2])N[*:1]; αMe4Pal = C[C@](N)(Cc1ccncc1)C(=O)O; αMeY = C[C@](N)(Cc1ccc(O)cc1)C(=O)O; Hyp = O=C(O)[C@@H]1C[C@@H](O)CN1; 4Pal = N[C@@H](Cc1ccncc1)C(=O)O; αMeL = CC(C)C[C@](C)(N)C(=O)O; αMeS = C[C@](N)(CO)C(=O)O; Orn = NCCC[C@H](N)C(=O)O; Dab = NCC[C@H](N)C(=O)O; AEEA = NCCOCCOCC(=O)O; Aib = CC(C)(N)C(=O)O
ASSAY READOUT: EC50

INSERT INTO measurements (substance, system_under_test, assay_readout, reported_result) VALUES
  ('H-Y[Aib]QGTFTSD[4Pal]S[Orn][αMeL]LDKK([AEEA-γGlu-C18 diacid])AQ[αMe4Pal]AFIEYLIE[Aib]GESSGAPPPSGS-NH2 [Example 223]', 'human GcgR (Homo sapiens, UniProt P47871)', 'EC50', '373 nM'),
  ('H-Y[Aib]QGT[αMePhe(2-F)]TSD[4Pal]SI[αMeL]LD[Orn]K([γGlu-γGlu-C18 diacid])AQ[αMe4Pal]EFI[dE][αMeY]LIEGGPSSGAPPPSGE-NH2 [Example 616]', 'human GcgR (Homo sapiens, UniProt P47871)', 'EC50', '734 nM'),
  ('H-Y[Aib]QGTFTSD[4Pal]SR[αMeL]LDKK([γGlu-γGlu-C18 diacid])AQ[αMe4Pal]AFIE[αMe4Pal]LIEGGPSSGAPPPSGS-NH2 [Example 953]', 'human GcgR (Homo sapiens, UniProt P47871)', 'EC50', '275 nM'),
  ('H-Y[Aib]QGT[αMePhe(2-F)]TSD[4Pal][αMeS]I[αMeL]LD[Orn]K([AEEA-γGlu-C18 diacid])AQ[αMe4Pal]EFI[dE][αMeY]LIEGGPSSGAPPPEGGGEEE-NH2 [Example 1217]', 'human GcgR (Homo sapiens, UniProt P47871)', 'EC50', '253 nM'),
  ('H-Y[Aib]QGT[αMePhe(2-F)]TSD[4Pal][αMeS]I[αMeL]LD[Orn]K([AEEA-γGlu-C18 diacid])AQ[αMe4Pal]EFI[dE][αMeY]LIEGGPPS[Aib][Orn]PPP[Orn]GE-NH2 [Example 1195]', 'human GcgR (Homo sapiens, UniProt P47871)', 'EC50', '242 nM'),
  ('H-Y[Aib]QGTFTSDYSK[αMeL]LDKK([AEEA-γGlu-C20 diacid])AQQAFIEYLLAGGPSSGEPPPSGE-NH2 [Example 344]', 'human GcgR (Homo sapiens, UniProt P47871)', 'EC50', '1440 nM'),
  ('H-Y[Aib]QGT[αMePhe(2-F)]TSD[4Pal][αMeS]I[αMeL]LD[Orn]K([AEEA-γGlu-C18 diacid])AA[Aib]EFI[dE][αMeY]LIEGGPSSGAPPPSGTEE-NH2 [Example 725]', 'human GcgR (Homo sapiens, UniProt P47871)', 'EC50', '244 nM'),
  ('H-Y[Aib]QGTFTSDFS[Orn][αMeL]LDKK([AEEA-γGlu-C18 diacid])AQ[Aib]AFIEWLLEGGPSSGAPPPEG[4Pal]-NH2 [Example 262]', 'human GcgR (Homo sapiens, UniProt P47871)', 'EC50', '720 nM'),
  ('H-Y[Aib]QGTFTSDFSK[αMeL]LDKK([AEEA-γGlu-C20 diacid])AQ[Aib]AFIEYLLAGGPSSGAPPPSGG-NH2 [Example 12]', 'human GcgR (Homo sapiens, UniProt P47871)', 'EC50', '1490 nM'),
  ('H-Y[Aib]QGT[αMePhe(2-F)]TSD[4Pal]SI[αMeL]LDKK([γGlu-γGlu-C18 diacid])AQ[Aib]AFIEYLEEGGPSSGEPPPSGEGE-NH2 [Example 625]', 'human GcgR (Homo sapiens, UniProt P47871)', 'EC50', '657 nM'),
  ('H-Y[Aib]QGTFTSD[4Pal][αMeS]Q[αMeL]LD[Orn]K([dE-γGlu-C18 diacid])AQ[αMe4Pal]QFIQ[αMeY]LIE[Aib]GPSSGEPPPSGGGE-NH2 [Example 1183]', 'human GcgR (Homo sapiens, UniProt P47871)', 'EC50', '127 nM'),
  ('H-Y[Aib]QGT[αMePhe(2-F)]TSD[4Pal][αMeS]I[αMeL]LD[Orn]K([AEEA-γGlu-C18 diacid])AQ[αMe4Pal]EFI[dE][αMeY]LVEGGPSSGEPPPSGTGE-NH2 [Example 734]', 'human GcgR (Homo sapiens, UniProt P47871)', 'EC50', '230 nM'),
  ('H-Y[Aib]QGT[αMePhe(2-F)]TSD[4Pal][αMeS]I[αMeL]LD[Orn]K([γGlu-γGlu-C18 diacid])AQ[Aib][Orn]FI[dE][αMeY]LSEGGPSSGEPPPSGSE-NH2 [Example 560]', 'human GcgR (Homo sapiens, UniProt P47871)', 'EC50', '355 nM'),
  ('H-Y[Aib]QGTFTSD[4Pal]SQ[αMeL]LDKK([dE-γGlu-C18 diacid])AQ[αMe4Pal]AFIEYLIE[Aib]GPSSGAPPPSGS-NH2 [Example 920]', 'human GcgR (Homo sapiens, UniProt P47871)', 'EC50', '1090 nM'),
  ('Y[Aib]QGT[αMePhe(2-F)]TSD[4Pal][αMeS]I[αMeL]LD[Orn]K([AEEA-γGlu-C18 diacid])AQ[αMe4Pal]EFI[dQ][αMeY]LIEGGPSSGAPPPSGS-NH2 [Example 1202]', 'human GcgR (Homo sapiens, UniProt P47871)', 'EC50', '70.3 nM'),
  ('H-Y[Aib]QGTFTSDFS[Orn][αMeL]LDKK([AEEA-γGlu-C18 diacid])AQ[αMe4Pal]EFIEYLIE[Aib]GPSSGAPPPSGS-NH2 [Example 879]', 'human GcgR (Homo sapiens, UniProt P47871)', 'EC50', '329 nM'),
  ('H-Y[Aib]QGTFTSDFS[Orn][αMeL]LDKK([AEEA-γGlu-C18 diacid])AQ[Aib]AFIEYLLEGGPSSGAPP[Hyp]GGS-NH2 [Example 237]', 'human GcgR (Homo sapiens, UniProt P47871)', 'EC50', '441 nM'),
  ('Y[Aib]QGT[αMePhe(2-F)]TSD[4Pal][αMeS]I[αMeL]LD[Orn]K([γGlu-γGlu-C18 diacid])AQ[Aib][Orn]FI[dE][αMeY]LQEGGPSSGEPPPSGTE-NH2 [Example 504]', 'human GcgR (Homo sapiens, UniProt P47871)', 'EC50', '162 nM'),
  ('H-Y[Aib]QGT[αMePhe(2-F)]TSDYSKLLDKIAQK([AEEA-γGlu-C20 diacid])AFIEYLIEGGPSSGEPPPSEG-NH2 [Example 304]', 'human GcgR (Homo sapiens, UniProt P47871)', 'EC50', '1720 nM'),
  ('H-Y[Aib]QGTFTSDFSK[αMeL]LDKK([AEEA-γGlu-C18 diacid])AQ[Aib]AFIEYLLE[Aib]GPSSGAPPPSEG-NH2 [Example 57]', 'human GcgR (Homo sapiens, UniProt P47871)', 'EC50', '113 nM'),
  ('Y[Aib]QGTFTSDFS[Dab][αMeL]LDKK([AEEA-γGlu-C18 diacid])AQ[Aib]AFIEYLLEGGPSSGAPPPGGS-NH2 [Example 67]', 'human GcgR (Homo sapiens, UniProt P47871)', 'EC50', '781 nM');

Reference source for all entries: patent US20240270821A1
